# Test system: BUB1
# Experimental Parameters: concentration: 1 μM,replicates: in singlicate; n = 1;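 further: KINOMEscan kinase panel screen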
Can you tell me %Inh for the items I'm about to list?
Put your answer as a value accompanied by its unit after it.

Prompt: Enter reported %Inh observed with BUB1 for "Cn1cc(-c2cccc3c(N)c(C(N)=O)nnc23)cn1"
Response: 32%

Prompt: Similarly, "Cn1ccc2ncnc(Oc3ccc(NC(=O)Nc4ccnc(C(F)(F)F)c4)c(Cl)c3)c21" ?
Response: 5%

Prompt: Query "CS(=O)(=O)c1cccc(CNc2nc(Nc3ccc4c(c3)[C@@H]3C[C@@H]4CNC3=O)ncc2C(F)(F)F)c1" next
Response: 0%

Prompt: Also, "Cc1cccc(-c2nc(Nc3ccncc3)c3sccc3n2)n1" please.
Response: 54%

Prompt: # repeat for "O=C(Nc1cccc(Oc2ccc3nccn3n2)c1)Nc1cccc(C(F)(F)F)c1"
Response: 7%

Prompt: Also "NC(=O)Nc1sc(-c2ccc(F)cc2)cc1C(N)=O" ?
Response: 20%

Prompt: What do you have for CC(C(=O)NC1CCN(c2ccnc(Nc3ccc(F)cc3)n2)C1)c1ccc(Cl)cc1 (stereo not shown) ?
Response: 18%

Prompt: Thanks! And "Cc1ccc(C(=O)Nc2ccc(Oc3ccc4nc(NC(=O)C5CC5)cn4c3)c(F)c2)c(=O)n1-c1ccccc1" ?
Response: 0%

Prompt: Now the molecule "Nc1nccc(-c2ccc3c(N)n[nH]c3c2)n1"
Response: 73%

Prompt: Request: "CS(=O)(=O)Nc1ccc(-c2ccnc3[nH]ccc23)cc1"
Response: 35%

====

Would you kindly list %Inh for each of these compounds?
# Test system: PAK1
# Experimental Parameters: concentration: 1 μM,replicates: in singlicate; n = 1
Report the figure in % without appending any unit label.

Prompt: Field request: %Inh | item: "Cc1cccc(-c2nc(Nc3ccncc3)c3sccc3n2)n1"
Response: 15

Prompt: Try the compound "CC(C)c1nc(-c2cccc(NS(=O)(=O)c3ccccc3)c2)c(-c2ccnc(Nc3ccc4c(c3)CN(C)CC4)n2)s1"
Response: 39

Prompt: Entry "Cn1ccc2ncnc(Oc3ccc(NC(=O)Nc4cc(C(C)(C)C)on4)c(Cl)c3)c21" please
Response: 20

Prompt: Could you do the same for "CCn1c(-c2nonc2N)nc2cncc(CNC3CCNCC3)c21.Cl" , please?
Response: 0

====

# Tested on: STK35
# Experimental Parameters: concentration: 1 μM,replicates: in singlicate; n = 1
Can you tell me %Inh for the items I'm about to list?
Return type: number; implicit unit %.

Prompt: Given the molecule "CS(=O)(=O)c1cccc(CNc2nc(Nc3ccc4c(c3)[C@@H]3C[C@@H]4CNC3=O)ncc2C(F)(F)F)c1" , what is its reported %Inh?
Response: 0

Prompt: Try this molecule too: "C[C@@H]1CCN(C(=O)N2CCCC2)C[C@@H]1N(C)c1ncnc2[nH]ccc12"
Response: 0

Prompt: Continue with "COc1cccc(OC)c1C(=O)Nc1cccc(-c2nn3ccccc3c2-c2ccnc(Nc3cccc(F)c3)n2)c1"
Response: 0

Prompt: Next molecule: "O=C(Nc1cccc(C(F)(F)F)c1)c1cccc(Oc2ccc3nccn3n2)c1"
Response: 8

Prompt: Now try "FC(F)(F)c1cc(Br)cc(Nc2nccc(-c3cnn4ncccc34)n2)c1" .
Response: 9

Prompt: Next: "O=C1NCCc2[nH]c(-c3ccncc3)cc21"
Response: 68

Prompt: Also "CC(C)S(=O)(=O)N1CCN(Cc2ccc3c(c2)nc(NC(=O)c2ccsc2)n3C[C@H](O)c2ccccc2)CC1" ?
Response: 0

Prompt: Then "Cn1ccc2ncnc(Oc3ccc(NC(=O)Nc4ccnc(C(F)(F)F)c4)c(Cl)c3)c21" ?
Response: 15

Provenance of the data: paper PMC5540273
